Listing of recorded MIC by entry.
Test system: Candida albicans
Assay: Antifungal activity against fluconazole-resistant Candida albicans Strain 17# assessed as inhibition of visible microbial growth by NCCLS protocol based method
Type: functional
Output spec: scalar in µg/mL, unitless text.

Sample answers from the record:
| smilesEntry | MIC, µg/mL |
| --- | --- |
| CC(C)C[C@@H](Cn1ccnc1)NC(=O)c1ccc(-c2ccccc2)cc1F | 1 |
| CC(C)[C@@H](Cn1ccnc1)NC(=O)c1ccc(-c2ccccc2)cc1F | 4 |
| CC[C@H](C)[C@@H](Cn1ccnc1)NC(=O)c1ccc(-c2ccccc2)cc1F | 2 |

Here's the next entry for you.
## Input Bench note: what MIC did CC[C@H](C)[C@@H](Cn1ccnc1)NC(=O)c1ccc(-c2ccccc2F)cc1F show?
## Output 2

Values were extracted from ChEMBL document CHEMBL4350998.
